pKd: −log10 of the molar value.
measurement-kind: pKd

[in] // output pKd; input `C[C@H](CNc1ccc([N+](=O)[O-])c2nonc12)[C@H]1CC[C@H]2[C@@H]3CC=C4C[C@@H](O)CC[C@]4(C)[C@H]3CC[C@]12C` ; system Aster-C206–528 (ASTER domain of Aster-C) (Mus musculus, UniProt Q8CI52)
[out] > 7.00
